Taken from patent US20240336909.

Target: AxCT mask27 EpCAM H90 L001 version 1
endpoint: Percent cleavage (%)
Number only, in %; omit the unit.

MMP-1 (protein) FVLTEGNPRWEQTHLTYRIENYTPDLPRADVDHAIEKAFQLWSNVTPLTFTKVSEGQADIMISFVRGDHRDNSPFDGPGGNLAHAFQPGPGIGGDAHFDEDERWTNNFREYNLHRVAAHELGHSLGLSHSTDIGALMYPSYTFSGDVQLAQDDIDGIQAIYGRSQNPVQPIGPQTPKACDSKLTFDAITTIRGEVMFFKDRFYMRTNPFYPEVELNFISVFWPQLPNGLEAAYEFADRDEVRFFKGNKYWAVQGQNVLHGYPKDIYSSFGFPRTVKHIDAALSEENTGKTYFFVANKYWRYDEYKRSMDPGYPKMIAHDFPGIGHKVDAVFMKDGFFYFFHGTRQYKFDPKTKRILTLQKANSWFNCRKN: 48

For the next question, use this protein.
Problem: Form field: reported Percent cleavage of MMP-12 (protein) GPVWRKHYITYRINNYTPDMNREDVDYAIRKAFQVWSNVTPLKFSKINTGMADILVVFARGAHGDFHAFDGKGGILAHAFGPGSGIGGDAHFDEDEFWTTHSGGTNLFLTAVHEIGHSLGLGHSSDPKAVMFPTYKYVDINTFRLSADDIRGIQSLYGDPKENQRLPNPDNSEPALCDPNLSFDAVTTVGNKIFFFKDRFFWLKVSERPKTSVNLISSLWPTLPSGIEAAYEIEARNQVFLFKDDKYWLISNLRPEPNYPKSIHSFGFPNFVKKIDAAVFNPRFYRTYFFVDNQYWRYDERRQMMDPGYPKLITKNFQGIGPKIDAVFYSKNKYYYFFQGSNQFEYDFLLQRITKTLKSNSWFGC
Solution: 91
